meta.source: paper PMC2397535

- protocol: pharmacokinetics and biodistribution in BT-474 tumor-bearing mice (HPLC/MS-MS)
- Format: in vivo
- experimental-parameters: female, athymic, mouse, liver, iv, 30 mg/kg, liver; 30 mg/kg single i.v.; read-out: T 1/2 elimination λ_z (converted)

smiles-str: CCNC(=O)c1noc(-c2cc(C(C)C)c(O)cc2O)c1-c1ccc(CN2CCOCC2)cc1
quantity-unit: h
half-life: 7.7

====

- protocol: pharmacokinetics and biodistribution in BT-474 tumor-bearing mice (HPLC/MS-MS)
- Type: in vivo
- experimental-parameters: female, athymic, mouse, plasma, iv, 30 mg/kg, plasma; 30 mg/kg single i.v.; read-out: T 1/2 elimination λ_z (converted)
- Method: At various time points, mice (n = 4) were sacrificed and blood and tissues (tumor, liver, lung, heart, and muscles) were dissected. […] Concentrations of unknown samples were calculated from the peak area ratio of the product ion of the analytes to the product ion of its internal standard (ordinate) against the nominal concentration (abscissa). […]

smiles-str: CCNC(=O)c1noc(-c2cc(C(C)C)c(O)cc2O)c1-c1ccc(CN2CCOCC2)cc1
half-life: 10.3 h
